Recorded values, source ChEMBL document CHEMBL1157539.

Please go through the items and note down their Inhibition.
System: Plasmodium falciparum
Assay Protocol: GSK_TCMDC: Inhibition of Plasmodium falciparum 3D7 in whole red blood cells, using parasite LDH activity as an index of growth. Test compounds present at 2uM
Type: functional
Could you give me the number in %? Just the number is fine.

Provide only the value of recorded Inhibition for Cn1nccc1C(=O)NCCNCc1ccc(-c2cccc(-c3nc4cc(C(F)(F)F)ccc4[nH]3)c2)cc1.O=C(O)C(F)(F)F
100

Name the recorded Inhibition of the item CC(C)(C)c1ccc(NC(=O)N[C@@H]2CCN(c3ccnc4ccccc34)C2)cc1.Cl in your answer.
100

State its Inhibition for this compound: Cc1ccccc1C1CCN(C2CCC(NC(=O)c3ccc(-c4cccs4)s3)CC2)CC1 (centres undefined)
100

Could you please provide reported Inhibition for COC(=O)c1ccc2nc(-c3cc(-c4cccc(-c5ccccc5)c4)cnc3N)[nH]c2c1 ? Thanks!
100

Let me know recorded Inhibition for Cc1cc(N[C@@H](CC(C)C)C(=O)NCCOc2ccccc2)nc(NCCOc2ccccc2)n1.O=C(O)C(F)(F)F , thanks.
89

State its Inhibition for this compound: COCCn1c(-c2cccc(Cl)c2)nn(-c2ccc([N+](=O)[O-])cc2Cl)c1=S
100

Report measured Inhibition; entry is COc1cccc(NC(=O)Nc2cc(C)nc3ccccc23)c1
100

Report measured Inhibition; entry is CC(C)(C(=O)Nc1ccc(N2CCC3(CCCN(CC4CC4)C3)CC2)c(Cl)c1)c1cccc(C(F)(F)F)c1
92

Please give the documented Inhibition of CCNC(=O)Nc1cccc(-c2cccc(-c3nc4cccc(C)c4[nH]3)c2)c1
85
